Answer each item with its documented switch fluorescence ratio.
- Test system: ATP;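 further: ATP exposure 15 min at 22 °C before imaging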
- assay_overview: switch fluorescence ratio, 500 uM ATP over buffer (Cy3 cluster intensity, sum of 5 cycles each) (fold (ratio)); higher = stronger signal-on switching upon ATP binding; sequences stand for … in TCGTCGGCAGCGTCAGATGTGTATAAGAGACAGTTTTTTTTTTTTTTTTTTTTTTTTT…TC
- conditions_used: aptamer strand: ATP DNA aptamer (quencher-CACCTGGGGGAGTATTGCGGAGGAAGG + anchor), 100 nM annealed; ATP concentration: 500 uM
Form rule: numeric answer, no unit written next to it.

Lookup: Using the record for TGGGACTGGG , report its switch fluorescence ratio.
Found: 1.01

Lookup: Query TATACATTGG next
Found: 0.989

Lookup: Query TATATCGGAC next
Found: 1

Lookup: Query TGCGAGGGGA next
Found: 1.01

Lookup: Query CTGTTGGTGG next
Found: 0.99

Lookup: Query TGTTCCGGGT next
Found: 0.999

Lookup: Query CTTACGGTCG next
Found: 1.02

Lookup: Query GTTGTTCAAA next
Found: 0.989

Lookup: Query GGGATGATAG next
Found: 0.959

Lookup: Query AAGTTTGTGG next
Found: 0.973

Lookup: Query TAATTGGGTG next
Found: 1.09

Lookup: Query AAGTATAGCA next
Found: 1.03

Lookup: Query ATGTGGGGAC next
Found: 1.01

Lookup: Query TTTGTGTTTG next
Found: 0.999

Lookup: Query AGCGGTGGTT next
Found: 1.02

Lookup: Query TTCCTTCT next
Found: 1.13

Lookup: Query TTCCTCGGGT next
Found: 1.03

Lookup: Query AGACCTGGCC next
Found: 1.14

Lookup: Query GTGACGAGTG next
Found: 0.993

Lookup: Query AAAAAATTGT next
Found: 0.999

Lookup: Query AAGGGAAGGC next
Found: 1

Lookup: Query TAAGTGTATG next
Found: 1.01

Lookup: Query AGGTGAGGGC next
Found: 1.02

Lookup: Query TCTTGGAGAA next
Found: 1.05

Lookup: Query AATGGTTCTC next
Found: 0.985

Lookup: Query TCCGGGCAGG next
Found: 1.14

Lookup: Query AATGAGTCGG next
Found: 0.998

Lookup: Query GATTGTATCA next
Found: 0.99

Lookup: Query CGCTCCGGGG next
Found: 1.06

Lookup: Query ACACCAGGGG next
Found: 4.18

Lookup: Query TTCGATCCGT next
Found: 1.07

Lookup: Query GGGGCCCATG next
Found: 0.992

Lookup: Query TCCGAGAGAG next
Found: 1.25

Lookup: Query TGATTAGGGC next
Found: 1.01

Lookup: Query GAATACTTGG next
Found: 1.04

Lookup: Query CAAGAGGGGC next
Found: 1

Lookup: Query TTTACCTGAG next
Found: 1.37

Lookup: Query TTTTTCGGGG next
Found: 1.02

Lookup: Query CGGTGAAAAT next
Found: 0.97

Lookup: Query ATAGTCATAC next
Found: 1.25

Lookup: Query AAGGTAAGGG next
Found: 1.01

Lookup: Query TGAAGACATT next
Found: 1.02

Lookup: Query TGAAGGGTGC next
Found: 1.02

Lookup: Query CCTTGTACTG next
Found: 1.07

Lookup: Query ATTGGTGCT next
Found: 1

Lookup: Query GTTAAATCTT next
Found: 1

Lookup: Query TCGACTGCGT next
Found: 1.06

Lookup: Query TAATAATCCA next
Found: 0.994

Lookup: Query GAGATGTTTT next
Found: 0.988

Lookup: Query GGCCGTTTGA next
Found: 1.02

Lookup: Query GACGTGAGGA next
Found: 0.989

Lookup: Query CGGCGCTTCT next
Found: 1.1

Lookup: Query TGTGTTTGGG next
Found: 0.987

Lookup: Query TTTCTTCGCG next
Found: 1.03

Lookup: Query AATTTAGACG next
Found: 1.02

Lookup: Query AAGTTGCGCT next
Found: 1

Lookup: Query TTTTGTCGCG next
Found: 0.974

Lookup: Query TGTGGGCATT next
Found: 1.02

Lookup: Query TGGGTTGCTG next
Found: 1.05

Lookup: Query TTTTCGCTAA next
Found: 1.55

Lookup: Query TTAATCCCCC next
Found: 1.04

Lookup: Query TTTTTGTACG next
Found: 0.998

Lookup: Query ATATTGAGGT next
Found: 1

Lookup: Query TCAACAGGA next
Found: 1.01

Lookup: Query CCAGTAAATT next
Found: 0.993

Lookup: Query TTTAAACGGA next
Found: 1.05

Lookup: Query TGGATCAAGT next
Found: 1.01

Lookup: Query GGGGGCGTTT next
Found: 1.01

Lookup: Query AAGTGCGGCC next
Found: 0.987

Lookup: Query TTTGCCGAGT next
Found: 0.996

Lookup: Query GTAGTTGATG next
Found: 0.966

Lookup: Query GTGGCTTGTG next
Found: 1

Lookup: Query TGTGATGCCG next
Found: 0.976

Lookup: Query AAGTAGGGGG next
Found: 0.951

Lookup: Query GCTTCTGGAA next
Found: 1.06

Lookup: Query CTCTTTGGGG next
Found: 0.976

Lookup: Query AAAGTATTTT next
Found: 1.03

Lookup: Query ATTGAGCGGT next
Found: 0.983

Lookup: Query AGGAGTGTTT next
Found: 1

Lookup: Query TTAGCTGGCA next
Found: 1

Lookup: Query TCACTTAATA next
Found: 0.994

Lookup: Query AACTATATCT next
Found: 1.05

Lookup: Query GAGTCAGTGG next
Found: 0.984

Lookup: Query AAAAGGGTAG next
Found: 1.01

Lookup: Query ATTCCCGGTC next
Found: 1.01

Lookup: Query AGGGGGTGGT next
Found: 0.987

====

- Test system: ATP;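 further: ATP exposure 15 min at 22 °C before imaging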
- assay_overview: switch fluorescence ratio, 500 uM ATP over buffer (Cy3 cluster intensity, sum of 5 cycles each) (fold (ratio)); higher = stronger signal-on switching upon ATP binding; sequences stand for … in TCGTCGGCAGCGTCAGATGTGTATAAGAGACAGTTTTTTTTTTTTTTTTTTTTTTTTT…TC
- conditions_used: aptamer strand: ATP DNA aptamer (quencher-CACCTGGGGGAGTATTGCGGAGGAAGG + anchor), 100 nM annealed; ATP concentration: 500 uM
quantity_measured: switch fluorescence ratio
Form rule: numeric answer, no unit written next to it.

Lookup: # returns recorded switch fluorescence ratio (system: ATP) for ATCCGCCGCT;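 further: ATP exposure 15 min at 22 °C before imaging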
Found: 1.72

Lookup: Query CTTATGATAG next
Found: 0.97

Lookup: Query TTCGTATCAT next
Found: 1.05

Lookup: Query TTGGCGGGCA next
Found: 0.998

Lookup: Query AATTTCGTTG next
Found: 0.999

Lookup: Query ATCCCTCATA next
Found: 1.01

Lookup: Query CCGTGGGTAC next
Found: 5.55

Lookup: Query AGGATTGGTG next
Found: 0.999

Lookup: Query ATTCTGATGC next
Found: 1.05

Lookup: Query GGTCATGTTT next
Found: 0.993

Lookup: Query TTGTTCGATG next
Found: 0.99

Lookup: Query CTGAGAGAAT next
Found: 1.27

Lookup: Query CGTTGTGTAG next
Found: 1.02

Lookup: Query GTGGTATGCA next
Found: 1.02

Lookup: Query AACAGGTGGG next
Found: 1.24

Lookup: Query GGAACGGGTC next
Found: 1.02

Lookup: Query TGGGATTAAG next
Found: 0.987

Lookup: Query TTCGGCTCTC next
Found: 1.63

Lookup: Query GGTGGATTCG next
Found: 1.06

Lookup: Query AGAGTCTGGT next
Found: 0.965

Lookup: Query ACAGGGAGTT next
Found: 0.991

Lookup: Query AAAGGGGACC next
Found: 1.09

Lookup: Query TGTGTTAGTT next
Found: 0.991

Lookup: Query GATAGGGGAC next
Found: 1.03

Lookup: Query AAAGCGGTTG next
Found: 0.98

Lookup: Query TGGGGCATTT next
Found: 1

Lookup: Query CAGTAAATGT next
Found: 0.984

Lookup: Query GGCCCGGGGA next
Found: 1.02

Lookup: Query CCAAAGGGGA next
Found: 1.15

Lookup: Query TATGCGCAGA next
Found: 1.01

Lookup: Query GTTGTGCTGG next
Found: 1.01

Lookup: Query CAAGGCATGG next
Found: 1.05

Lookup: Query TAATTATTAA next
Found: 1.01

Lookup: Query AGATAAAATT next
Found: 0.98

Lookup: Query CAGAGGGGTC next
Found: 0.999

Lookup: Query TTGATTAGGC next
Found: 1.06

Lookup: Query GAGTACCCGG next
Found: 1

Lookup: Query GGTACGTTTT next
Found: 1.03

Lookup: Query CGATCGGTCA next
Found: 1.01

Lookup: Query TCGGGGGTGA next
Found: 1

Lookup: Query AATTTAAAG next
Found: 0.992

Lookup: Query TATTTTAGAA next
Found: 0.996

Lookup: Query ACGTTTGAGG next
Found: 0.988
